Cited source: patent US7514240B2

Reported IC50 values for the following compounds.
assay system: UniProtKB P00533
Sequence (P00533 25-1210): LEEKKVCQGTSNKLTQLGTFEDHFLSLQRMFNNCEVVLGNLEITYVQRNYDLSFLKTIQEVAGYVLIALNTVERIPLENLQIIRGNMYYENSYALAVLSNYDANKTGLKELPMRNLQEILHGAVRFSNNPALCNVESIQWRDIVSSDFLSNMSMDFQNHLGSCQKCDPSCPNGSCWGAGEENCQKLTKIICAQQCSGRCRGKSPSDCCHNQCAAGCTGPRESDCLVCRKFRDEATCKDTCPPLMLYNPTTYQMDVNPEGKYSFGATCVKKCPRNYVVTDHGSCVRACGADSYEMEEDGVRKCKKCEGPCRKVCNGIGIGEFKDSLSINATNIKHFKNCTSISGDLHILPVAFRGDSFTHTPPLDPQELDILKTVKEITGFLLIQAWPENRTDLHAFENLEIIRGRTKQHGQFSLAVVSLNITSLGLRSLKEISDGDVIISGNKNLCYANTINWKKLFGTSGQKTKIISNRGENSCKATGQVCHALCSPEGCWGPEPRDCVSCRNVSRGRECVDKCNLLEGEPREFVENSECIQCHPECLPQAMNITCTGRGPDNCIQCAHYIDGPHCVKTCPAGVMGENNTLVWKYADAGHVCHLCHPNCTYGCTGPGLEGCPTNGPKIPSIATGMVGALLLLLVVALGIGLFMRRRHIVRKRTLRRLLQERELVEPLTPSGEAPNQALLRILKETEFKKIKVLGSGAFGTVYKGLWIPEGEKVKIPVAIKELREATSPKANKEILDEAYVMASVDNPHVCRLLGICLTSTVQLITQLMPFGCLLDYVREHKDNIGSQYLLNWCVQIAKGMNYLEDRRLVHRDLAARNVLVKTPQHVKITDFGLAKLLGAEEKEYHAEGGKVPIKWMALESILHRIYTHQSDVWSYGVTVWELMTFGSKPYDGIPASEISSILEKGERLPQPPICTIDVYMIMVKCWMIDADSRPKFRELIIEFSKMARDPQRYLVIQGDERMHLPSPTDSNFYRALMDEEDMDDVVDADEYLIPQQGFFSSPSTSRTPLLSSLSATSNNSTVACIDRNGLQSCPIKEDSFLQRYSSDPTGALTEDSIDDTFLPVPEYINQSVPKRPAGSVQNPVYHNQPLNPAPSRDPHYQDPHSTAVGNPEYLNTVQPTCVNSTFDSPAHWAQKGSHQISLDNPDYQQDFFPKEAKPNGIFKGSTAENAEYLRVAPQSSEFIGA
procedure details: EGF-EGFR binding inhibition assay (Eu-EGF, A431 cells, DELFIA time-resolved fluorescence)
experimental setup: Eu-EGF 5 nmol/L, compounds at 1, 3, 10 and 30 μg/mL, nonlinear least square fitting
Method: A431 cells (human squamous cell carcinoma cells, purchased from ATCC) for use in this experiment were subcultured using a medium (hereinafter denoted as a medium) prepared by adding inactivated FBS (JRH), Penicillin-streptmycin (GIBCO), and Amphotelicin B (Sigma) at final concentrations of 10 vol %, 50 U/mL-50 μg/mL, and 1 μg/mL, respectively, to DMEM (Sigma). […]
observation type: IC50 (µM)

• CCc1cc2c(cc1C(=O)CSc1ncccc1C(=O)O)C(C)(C)CCC2(C)C = 57.8
• CN1CCN(CCCN2c3ccccc3Sc3ccc(C(F)(F)F)cc32)CC1.Cl.Cl [dihydrochloride] = 16.7
• CCCCCCSc1nc2c(c(=O)[nH]c(=O)n2C)n1CCC = 40.1
